Data origin: ChEMBL document CHEMBL1201862

Kindly state GI50 for each of the entries shown.
- Test system: DMS-273
- experimental protocol: NCI tumour cell line growth inhibition, 48 h
Active and inactive are the calls of the source. Rule as the data show it: active = GI50 up to about 1.1 µM and inactive = higher.

State the recorded GI50 for this entry: CC(C)C1CC2C(=O)N(c3ccccc3)C(=O)C2c2[nH]c3ccccc3c21 (configuration not stated)
9.84 µM (inactive)

Consider next the compound CCOc1ccc2[nH]c3c(C)c4ccncc4c(C)c3c2c1 in the same way.
0.394 µM (active)

Consider next the compound COC(=O)C1=C(c2cc(OC)c(OC)c(OC)c2)OC(c2ccc3c(c2)OCO3)C1 (configuration not stated) in the same way.
25.4 µM (inactive)

Consider next the compound CC(=O)OCC1OC(n2c(-c3ccc(N)cc3)cc(-c3ccco3)c(C#N)c2=O)C(OC(C)=O)C(OC(C)=O)C1OC(C)=O (configuration not stated) in the same way.
5.26 µM (inactive)

Consider next the compound Nc1ncnc2c1ncn2CCOC(c1ccccc1)P(=O)(O)O (configuration not stated) in the same way.
> 100 µM (inactive)

Consider next the compound C=C1CC(OC)(C(O)C(=O)N[C@H]2OCO[C@H]3C2O[C@H](C[C@@H](CO)OC)C(C)(C)C3OC)O[C@H](C)[C@@H]1C (some centres not stated) in the same way.
< 0.00931 µM (active)

Consider next the compound Oc1ncc(N(CCCl)CCCl)c(O)n1 in the same way.
4.55 µM (inactive)

Consider next the compound CCC1CN2CCc3cc(OC)c(OC)cc3C2CC1CC1c2cc(OC)c(OC)cc2CCN1C(=O)C1CCCN1C(=O)OCc1ccccc1 (configuration not stated) in the same way.
16.3 µM (inactive)

Consider next the compound N#C/C(=C\c1ccc2[nH]ccc2c1)C(=O)NCCCCNC(=O)/C(C#N)=C/c1ccc2[nH]ccc2c1 in the same way.
> 100 µM (inactive)

Consider next the compound CCSC(SCC)c1cc2c(cc1Br)OCO2 in the same way.
3.7 µM (inactive)

Consider next the compound COc1ccc(OC)c(NC(=O)C(=O)CC(=O)c2sc(-n3nc(-c4ccccc4)cc3-c3ccccc3)nc2C)c1 in the same way.
> 100 µM (inactive)

Consider next the compound CC(=O)OC12c3ccccc3C1CCCCCC21OCCCO1 (configuration not stated) in the same way.
> 100 µM (inactive)

Consider next the compound CC(O)c1ccc(C(O)/C(=N\NC(=O)c2ccncc2)c2nc3ccc([N+](=O)[O-])cc3nc2O)cc1 (configuration not stated) in the same way.
83.8 µM (inactive)

Consider next the compound O=C(/C=C/c1ccccc1F)C(c1ccccc1)c1ccccc1 in the same way.
3.85 µM (inactive)

Consider next the compound CC(=O)Nc1ccc(C2=N/C(=C\c3ccc(Cl)c(Cl)c3)C(=O)O2)cc1 in the same way.
80.4 µM (inactive)

Consider next the compound CCOC(=O)C1CCCCN1C(=O)OCc1ccccc1 (configuration not stated) in the same way.
> 100 µM (inactive)

Consider next the compound CCOc1ccc(C2=NN(CC)C(=O)C(C3C(=O)N(c4ccccc4)N=C3C)C2)cc1 (configuration not stated) in the same way.
> 100 µM (inactive)

====

Kindly state GI50 for each of the entries shown.
- System: HOP-92
- experimental protocol: NCI tumour cell line growth inhibition, 48 h
Active and inactive are the calls of the source. No stated cut-off is given here; in the data, active = GI50 up to about 1.1 µM and inactive = higher.

State the recorded GI50 for this entry: CCCCCCCCCCCCCCCC(=O)OC1C(O)C(O)C(O)C(O)C12CO2 (stereo not drawn)
14.3 µM (inactive)

Consider next the molecule CN(C)c1ccc(N=O)c(O)c1.CN(C)c1ccc(N=O)c(O)c1.[SiH4] in the same way.
3.82 µM (inactive)

Consider next the molecule N#C/C(=C\c1ccccc1F)C(=O)c1ccccc1 in the same way.
> 100 µM (inactive)

Consider next the molecule Cn1c(=O)c2sc3c4sc5c(=O)n(C)c6ccccc6c5c4sc3c2c2ccccc21 in the same way.
90.8 µM (inactive)

Consider next the molecule COc1cc2c(cc1OC)C1CN3C(=O)CCC3C(O)C1c1cc(OC)c(OC)cc1-2 (stereo not drawn) in the same way.
> 100 µM (inactive)

Consider next the molecule O=C(c1ccc(Cl)cc1)N1N=C(c2ccc(Cl)cc2)CC1(O)c1cc(F)c(Cl)cc1Cl (stereo not drawn) in the same way.
11.6 µM (inactive)

Consider next the molecule C=CCN1C(=O)/C(=C\c2cc(C(C)(C)C)c(O)c(C(C)(C)C)c2)NC1=S in the same way.
28.9 µM (inactive)

Consider next the molecule CC1(CCc2ccccc2)CC1(Br)Br (stereo not drawn) in the same way.
13 µM (inactive)

====

- Tested on: HT-29
- experimental protocol: NCI tumour cell line growth inhibition, 48 h
Activity calls are given as the source filed them. Cut-off read from the data, not from the text of the source: active = GI50 up to about 1.1 µM and inactive = higher.
outcome measure: GI50

Param readout= GI50; system= HT-29; entry= COc1c(C(=O)O)cccc1-c1cccc(C(=O)NCCN(CCNC(=O)c2cccc(-c3cccc(C(=O)O)c3OC)c2OC)CCNC(=O)c2cccc(-c3cccc(C(=O)O)c3OC)c2OC)c1OC ; returns value.
20.7 µM (inactive)

Consider next the molecule Cc1sc(N/N=C2\C(=O)Nc3ccccc32)nc1-c1ccccc1 in the same way.
20.3 µM (inactive)

Consider next the molecule O=C1C(=CNC(=S)c2ccccc2)C(=O)c2ccccc21 in the same way.
> 100 µM (inactive)

====

- Tested on: CCRF-CEM
- experimental protocol: NCI tumour cell line growth inhibition, 48 h
The source made the active and inactive calls. Cut-off read from the data, not from the text of the source: active = GI50 up to about 1.1 µM and inactive = higher.
Kindly state GI50 for each of the entries shown.

State the recorded GI50 for this entry: CC(C)(C)NC(=O)NC12CC3CC(CC(F)(C3)C1)C2
> 100 µM (inactive)

Consider next the molecule CC(=O)Nc1ccc(C2=N/C(=C\c3ccc(Cl)c(Cl)c3)C(=O)O2)cc1 in the same way.
> 100 µM (inactive)

Consider next the molecule O=C(/C(=N\Nc1ccc([N+](=O)[O-])cc1[N+](=O)[O-])NC12CC3CC(CC(C3)C1)C2)C(Br)C(=O)c1ccccc1 (configuration not stated) in the same way.
2.67 µM (inactive)

Consider next the molecule O=C1CC(CC(O)C(O)C(O)CO)CC(=O)N1 (configuration not stated) in the same way.
> 100 µM (inactive)

Consider next the molecule O=C(NCCCCCCO)c1cccc2cc3ccccc3nc12 in the same way.
32.3 µM (inactive)

Consider next the molecule CCOC(=O)C(Cc1ccc(N(CCCl)CCCl)cc1)NC(=O)C(Cc1ccccc1)NC=O (configuration not stated) in the same way.
0.0526 µM (active)

Consider next the molecule COc1ccc(C(=O)C(c2ccc(OC)cc2)C2(O)C(=O)Nc3c2ccc(Cl)c3C)cc1 (configuration not stated) in the same way.
> 100 µM (inactive)

====

- Tested on: NCI/ADR-RES
- experimental protocol: NCI tumour cell line growth inhibition, 48 h
Activity calls are given as the source filed them. No stated cut-off is given here; in the data, active = GI50 up to about 1.1 µM and inactive = higher. Positions of bridges follow the written chain, without caps; N, C: chain ends. Where a SMILES comes first, the peptide text is derived from it. Non-standard residues stand in square brackets, D forms with d. Residues, ends and D or L forms follow the SMILES beside them. [ ]: non-standard residue; d: D form. ξ: configuration not given here. *: point of attachment. ξThz(5,5-Me2) = CC1(C)SCNC1C(=O)O; Cbz = O=C(OCc1ccccc1)*; Aib = CC(C)(N)C(=O)O; OBn = c1ccc(CO*)cc1; βAla = NCCC(=O)O
Hi there, use one of these labels in your reply, thanks! TRUE = active, FALSE = inactive

For Cc1cc(O)no1 [HYMEXAZOL] , what call appears in the results of this test?
FALSE

Consider next the molecule CCOP(=O)(OCC)C(Nc1ccc(F)cc1)c1ccccc1 (stereo not drawn) in the same way.
FALSE

Consider next the molecule CSCC[C@H](NC(=O)[C@H](CC(C)C)NC(=O)[C@H](Cc1c[nH]cn1)NC(=O)CNC(=O)C1N(C(=O)[C@@H](C)NC(=O)[C@H](Cc2c[nH]c3ccccc23)NC(=O)[C@H](CCC(N)=O)NC(=O)[C@@H](N)CC(N)=O)CSC1(C)C)C(N)=O (stereo partly drawn) (H-NQW[dA][ξThz(5,5-Me2)]GHLM-NH2) in the same way.
FALSE

Consider next the molecule CC1=NN(c2nc(N)nc(-c3sccc3N)n2)C(C)(C)C1 in the same way.
FALSE

Consider next the molecule CN(C)/N=C/c1cn(C)c(=O)n(C)c1=O in the same way.
FALSE

Consider next the molecule Cn1/c(=N\c2ccccc2[N+](=O)[O-])sc2ccccc21 in the same way.
FALSE

Consider next the molecule C/C=C/C=C/C1=NN(c2cccc(S(=O)(=O)O)c2)C2(C1)SCC(=O)N2c1nc2ccccc2s1 (stereo not drawn) in the same way.
FALSE

Consider next the molecule COC(=O)C1=C(N)C2=C(N)Oc3ccccc3C2CC1=C(C#N)C#N (stereo not drawn) in the same way.
FALSE

Consider next the molecule C/C=C(/C)C(=O)O[C@H]1C[C@@H]2[C@@H](O)c3occ(C)c3C[C@]2(C)[C@@H](C)C1 in the same way.
FALSE

Consider next the molecule Cc1cc(NS(=O)(=O)c2ccc(Nc3c4ccccc4nc4c(C(=O)NC(CO)(CO)CO)cccc34)cc2)no1 in the same way.
FALSE

Consider next the molecule Cc1ncc([N+](=O)[O-])n1CCNC(=O)CCn1ccnc1[N+](=O)[O-] in the same way.
FALSE

Consider next the molecule Cc1ccnc2c1c(=O)c1ccccc1n2C in the same way.
FALSE

Consider next the molecule COC(=O)C(CCC(=O)CCl)N1C(=O)c2ccccc2C1=O (stereo not drawn) in the same way.
FALSE

Consider next the molecule CC(CC(=O)O)C(C(=O)O)C(=O)O (stereo not drawn) in the same way.
FALSE

Consider next the molecule C1CCNCC1.S=C(S)N1CCCCC1 in the same way.
FALSE

Consider next the molecule CCOC(=O)/C(C(=S)NCc1ccccc1)=C(/N)N1CCCC1 in the same way.
FALSE

Consider next the molecule N#C/C(=C\c1ccc2[nH]ccc2c1)C(=O)NCCCCNC(=O)/C(C#N)=C/c1ccc2[nH]ccc2c1 in the same way.
FALSE

Consider next the molecule CCOC(=O)c1nc2ccccc2nc1NCc1ccc(Cl)cc1Cl in the same way.
FALSE

Consider next the molecule O=C1C(Cl)C(c2cccc(Br)c2)N1c1c(O)c(Cl)cc(Br)c1Cl (stereo not drawn) in the same way.
FALSE

Consider next the molecule CC[N+](C)(CC)CCC(O)(c1ccccc1)c1ccccc1 in the same way.
FALSE

Consider next the molecule O=C(CSc1nc2ccc(I)cc2c(=O)n1Cc1ccccc1)NN1C(=O)c2ccccc2C1=O in the same way.
FALSE

Consider next the molecule O=C1C=CC2(O[C@@H](Cc3ccccc3)[C@H](Cc3ccccc3)O2)C(SC(=O)c2ccccc2)C1 (stereo partly drawn) in the same way.
TRUE

Consider next the molecule CC(=O)C1=C(C)N2C(=NC3=C(CCc4ccccc43)C2c2ccc(F)cc2)S1 (stereo not drawn) in the same way.
FALSE

Consider next the molecule COc1cc(/C=N/N=C2NCCCN2)ccc1O in the same way.
FALSE

Consider next the molecule COc1ccc(C(Nc2ccccn2)c2cc(C(C)(C)C)cc(C(C)(C)C)c2O)cc1 (stereo not drawn) in the same way.
FALSE

Consider next the molecule c1ccc(CNCCN2CCNCC2)nc1 in the same way.
FALSE

Consider next the molecule CC1(C)NC(=O)C(NC(=O)C(CC(=O)OCc2ccccc2)NC(=O)OCc2ccccc2)CCCCNC(=O)CCNC1=O (stereo not drawn) (Cbz-D(OBn)K[Aib][βAla]; lactam 2-C; configuration not given here) in the same way.
FALSE

Consider next the molecule CCOC(=O)C(Cc1ccc(N(CCCl)CCCl)cc1)NC(=O)C(Cc1ccccc1)NC(C)=O (stereo not drawn) in the same way.
TRUE

Consider next the molecule COc1cc2c(cc1OC)C1CN3C(=O)CCC3C(O)C1c1cc(OC)c(OC)cc1-2 (stereo not drawn) in the same way.
FALSE

Consider next the molecule CCCCCCCCCCCCCCCCOCC(COP(=O)([O-])OCC[N+](C)(C)C)OCCCCCCCCCCCCCCCC (stereo not drawn) in the same way.
FALSE

Consider next the molecule CSC(=N/N=C(\C)c1ccc(S(=O)(=O)N(C)c2ccccc2)cc1)SC in the same way.
FALSE

Consider next the molecule O=S(=O)(O)C(c1ccccc1)C(O)c1ccccc1 (stereo not drawn) in the same way.
FALSE

Consider next the molecule CC(=O)NC1CC(C(C)(C)NC(C)=O)CC=C1C (stereo not drawn) in the same way.
FALSE
